# key: entry, value: NUCLEATED RED BLOOD CELLS
species on record: Rattus norvegicus; assay: DrugMatrix - Regimen: Daily Repeat; assay type: toxicity, organism-based, Sprague-Dawley; set-up: regimen Daily Repeat, gender Male, age 6-8 weeks; conditions: in vivo, po, 0 mg/kg, 120 h, tissue Blood, route oral GAVAGE, dose level Control, time 5 day, […]

compound: CC(C)(Oc1ccc(Cl)cc1)C(=O)O
readout.value: 0.33 /100WBC

Provide NUCLEATED RED BLOOD CELLS value for the following compound: CC(C)C(=O)Nc1ccc([N+](=O)[O-])c(C(F)(F)F)c1 [FLUTAMIDE]
0 /100WBC

State, in one line, measured NUCLEATED RED BLOOD CELLS of CN(C)c1nc(N(C)C)nc(N(C)C)n1
0.17 /100WBC

Consider the compound CCC(C)n1ncn(-c2ccc(N3CCN(c4ccc(OCC5COC(Cn6cncn6)(c6ccc(Cl)cc6Cl)O5)cc4)CC3)cc2)c1=O (stereo unspecified) . State its measured NUCLEATED RED BLOOD CELLS.
0 /100WBC

Annotate the compound CCOC(=O)C1=C(COCCN)NC(C)=C(C(=O)OC)C1c1ccccc1Cl (stereo unspecified) with its measured NUCLEATED RED BLOOD CELLS.
0.17 /100WBC

Tell me NUCLEATED RED BLOOD CELLS reported for Cc1noc(NS(=O)(=O)c2ccc(N)cc2)c1C
0 /100WBC
